src = paper PMC6735331

# TARGET OR TEST SYSTEM: α-glucosidase (EC3.2.1.20) (Saccharomyces cerevisiae, UniProt P53341)
# Construct: purchased Sigma Aldrich
# Sequence (P53341 whole entry): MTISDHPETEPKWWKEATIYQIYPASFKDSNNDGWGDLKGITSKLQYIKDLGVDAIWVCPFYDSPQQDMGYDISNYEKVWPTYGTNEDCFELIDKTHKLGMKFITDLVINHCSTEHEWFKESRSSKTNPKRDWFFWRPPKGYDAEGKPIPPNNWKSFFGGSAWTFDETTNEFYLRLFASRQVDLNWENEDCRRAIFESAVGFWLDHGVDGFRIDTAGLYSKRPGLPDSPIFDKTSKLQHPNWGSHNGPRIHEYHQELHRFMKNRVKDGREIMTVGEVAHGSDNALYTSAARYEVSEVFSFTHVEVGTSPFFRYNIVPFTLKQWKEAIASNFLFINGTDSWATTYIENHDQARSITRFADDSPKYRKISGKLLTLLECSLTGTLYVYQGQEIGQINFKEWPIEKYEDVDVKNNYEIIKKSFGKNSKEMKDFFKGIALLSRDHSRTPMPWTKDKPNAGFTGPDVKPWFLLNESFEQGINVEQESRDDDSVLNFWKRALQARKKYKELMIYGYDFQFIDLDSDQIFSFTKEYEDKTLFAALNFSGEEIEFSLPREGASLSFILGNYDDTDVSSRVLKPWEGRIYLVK
# METHOD SUMMARY: α-Glucosidase enzyme kinetics (Lineweaver–Burk, Dixon plots, secondary plots, Yang's method)
# Type: biochemical
# CONDITION INFO: from Dixon plots; read-out: Ki (inhibition constant)
Hi there, I'd appreciate the recorded Ki for every entry that follows.
Hi, when you answer, please include the unit after the number. Thanks!

The examples below pair each entry with its known result.
# COMPOUND, TARGET OR TEST SYSTEM, Ki
measured = [
    ("CC1(C)C=Cc2c(cc(O)c3c(=O)c4c(oc23)-c2c(O)cc(O)c3c2C(C4)C(C)(C)O3)O1 (stereo not shown)", "α-glucosidase (EC3.2.1.20) (Saccharomyces cerevisiae, UniProt P53341)", "5.8 µM"),
    ("CC1(C)Oc2c(O)cc(O)c3c2C1Cc1c-3oc2cc(O)cc(O)c2c1=O (stereo not shown)", "α-glucosidase (EC3.2.1.20) (Saccharomyces cerevisiae, UniProt P53341)", "12.6 µM"),
    ("C=C(C)[C@H]1Cc2c(oc3c4c(cc(O)c3c2=O)OC(C)(C)C=C4)-c2c(O)cc(O)c(O)c21", "α-glucosidase (EC3.2.1.20) (Saccharomyces cerevisiae, UniProt P53341)", "5.1 µM"),
]

Then there is this compound:
Short answer on α-glucosidase (EC3.2.1.20) (Saccharomyces cerevisiae, UniProt P53341) for C=C(C)C1Cc2c(oc3cc(OC)cc(O)c3c2=O)-c2c(O)cc(O)c(O)c21 (stereo not shown) , Ki: 2.9 µM
